Target or system Histone deacetylase 2 (Homo sapiens): recorded IC50 listed per item.
measuredEndpoint: IC50 (nM)

# example entries with known answers
CCC(=O)CCCCC[C@@H]1NC(=O)C2CCN2CCCCCOc2ccccc2-c2cnc1[nH]2 (stereo in doubt; 4)    911
CCC(=O)CCCCC[C@H](NC(=O)C1CN(C)C1)c1ncc(-c2ccccc2)[nH]1    249

1: CCC(=O)CCCCC[C@@H]1NC(=O)[C@H]2CC23CCN(C/C=C/CN2C4CCC2c2cc(ccc24)-c2cnc1[nH]2)CC3 (stereo partly specified)
2: CCC(=O)CCCCC[C@@H]1NC(=O)[C@H]2CC23CCN(CCCCN2C4CCC2c2cc(ccc24)-c2cnc1[nH]2)CC3 (stereo partly specified)
3: CCC(=O)CCCCC[C@H](NC(=O)[C@H]1CC12CCN(C)CC2)c1ncc(-c2ccc3c(c2)C2CCC3C2)[nH]1 (stereo partly specified)
4: CCC(=O)CCCCC[C@@H]1NC(=O)C2CCN2CCCCCCOc2ccccc2-c2cnc1[nH]2 (stereo in doubt; 5)
Could you please order the items by IC50, going from the lowest number to the highest? Your reply should list the labels following the order given in the request.
1, 3, 2, 4

###

Tested on: Human immunodeficiency virus
Assay: Reactivation of HIV latency infected in human 2C4 cells in presence of 0.1 % NHS by luciferase reporter gene assay
Assay type: functional, organism-based
Conditions: Human immunodeficiency virus 1, 2C4
pEC50: −log10 of the molar value.
measuredEndpoint: pEC50

CCC(=O)CCCCC[C@@H]1NC(=O)[C@H]2CC23CCN(CCCOCCCn2ccc4cc(ccc4c2=O)-c2cnc1[nH]2)CC3    5.75

1: CCC(=O)CCCCC[C@H](NC(=O)[C@H]1CC12CCN(CC)CC2)c1[nH]c2nc1C(=O)NCCC/C=C/c1cccc-2c1
2: CCC(=O)CCCCC[C@H](NC(=O)[C@H]1CC12CCN(CC)CC2)c1[nH]c2nc1C(=O)NCCC/C=C\c1cccc-2c1
Field: entry with larger pEC50 (options 1 / 2 ). To answer, give the label that identifies your chosen option.
2

###

Test: Clearance in Wistar Han rat at 2 mg/kg, iv
Type: ADME, organism-based
Conditions: in vivo
measuredEndpoint: clearance (mL/min/kg)

I: CCC(=O)CCCCC[C@@H]1NC(=O)[C@H]2CC23CCN(CCOCCn2ccc4cc(ccc4c2=O)-c2cnc1[nH]2)CC3
II: CCC(=O)CCCCC[C@@H]1NC(=O)[C@H]2CC23CCN(CCCCCCCCn2ccc4cc(c(OC)cc4c2=O)-c2cnc1[nH]2)CC3
Pick one, I or II : lowest reported clearance. To answer, give the label that identifies your chosen option.
I
(I: 3.9 mL/min/kg, II: 96 mL/min/kg)

###

Target or system UniProt Q9UBN7: recorded IC50 listed per item.
Sequence (Q9UBN7 whole entry): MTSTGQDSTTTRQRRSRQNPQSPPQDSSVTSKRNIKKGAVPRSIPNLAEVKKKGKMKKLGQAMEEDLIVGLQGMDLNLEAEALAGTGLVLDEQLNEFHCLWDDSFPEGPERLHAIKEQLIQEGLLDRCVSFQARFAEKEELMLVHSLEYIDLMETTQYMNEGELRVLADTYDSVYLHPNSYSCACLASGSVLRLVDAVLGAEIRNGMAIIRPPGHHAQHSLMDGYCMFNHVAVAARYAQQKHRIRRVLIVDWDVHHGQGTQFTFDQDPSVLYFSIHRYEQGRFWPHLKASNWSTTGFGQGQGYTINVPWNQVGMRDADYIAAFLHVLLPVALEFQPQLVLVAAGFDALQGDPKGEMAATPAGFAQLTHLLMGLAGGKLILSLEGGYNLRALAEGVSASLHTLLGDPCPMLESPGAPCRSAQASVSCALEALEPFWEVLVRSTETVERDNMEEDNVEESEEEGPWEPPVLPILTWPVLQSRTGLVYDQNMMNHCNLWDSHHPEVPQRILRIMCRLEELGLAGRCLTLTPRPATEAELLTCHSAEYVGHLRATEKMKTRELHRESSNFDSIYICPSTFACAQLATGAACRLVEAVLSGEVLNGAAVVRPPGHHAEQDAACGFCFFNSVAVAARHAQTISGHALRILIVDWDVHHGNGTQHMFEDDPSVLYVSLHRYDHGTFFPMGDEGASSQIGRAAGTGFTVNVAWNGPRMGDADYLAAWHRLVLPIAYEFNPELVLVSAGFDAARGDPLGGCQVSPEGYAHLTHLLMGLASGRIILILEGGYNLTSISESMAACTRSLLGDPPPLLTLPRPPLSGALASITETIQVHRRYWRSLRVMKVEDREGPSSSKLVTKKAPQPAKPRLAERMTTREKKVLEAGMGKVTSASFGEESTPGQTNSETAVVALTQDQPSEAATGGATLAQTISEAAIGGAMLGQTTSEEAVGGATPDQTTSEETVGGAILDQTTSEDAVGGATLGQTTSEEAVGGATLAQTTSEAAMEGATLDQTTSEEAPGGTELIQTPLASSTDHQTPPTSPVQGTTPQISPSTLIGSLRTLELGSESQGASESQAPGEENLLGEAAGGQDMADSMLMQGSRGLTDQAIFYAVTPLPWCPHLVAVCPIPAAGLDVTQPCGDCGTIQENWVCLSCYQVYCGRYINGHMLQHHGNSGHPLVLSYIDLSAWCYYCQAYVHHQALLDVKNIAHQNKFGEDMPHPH
measuredEndpoint: IC50 (µM)

# example entries with known answers
CCC(=O)CCCCC[C@H](NC(=O)C1CN(C)C1)c1ncc(-c2cc3ccccc3nc2OC)[nH]1    0.68
CCC(=O)CCCCC[C@H](NC(=O)C1CN(C)C1)c1ncc(-c2ccccc2)[nH]1    5.75

A: CCC(=O)CCCCC[C@@H]1NC(=O)C2CCN2CCCCCCc2ccccc2-c2cnc1[nH]2 (stereo in doubt; 7)
B: CCC(=O)CCCCC[C@@H]1NC(=O)C2CCN2CCCCCCc2ccccc2-c2cnc1[nH]2 (stereo in doubt; 8)
C: CCC(=O)CCCCC[C@@H]1NC(=O)C2CCN2CCCCCCOc2ccccc2-c2cnc1[nH]2 (stereo in doubt; 6)
Descending sort on IC50 required. Your reply should list the labels following the order given in the request.
B, A, C

###

Assay: Tmax in Wistar Han rat at 10 mg/kg, po
Assay type: ADME, organism-based
Conditions: in vivo
measuredEndpoint: Tmax (h)

1: CCC(=O)CCCCC[C@@H]1NC(=O)[C@H]2CC23CCN(CCCCCCCCn2ccc4cc(c(OC)cc4c2=O)-c2cnc1[nH]2)CC3
2: CCC(=O)CCCCC[C@@H]1NC(=O)[C@H]2CC23CCN(CCOCCn2ccc4cc(ccc4c2=O)-c2cnc1[nH]2)CC3
Pick one, 1 or 2 : lowest reported Tmax. To answer, give the label that identifies your chosen option.
2
(2: 0.25 h, 1: 3 h)

###

Biological target: Histone deacetylase 3 (Homo sapiens, UniProt O15379)
Sequence (O15379 whole entry): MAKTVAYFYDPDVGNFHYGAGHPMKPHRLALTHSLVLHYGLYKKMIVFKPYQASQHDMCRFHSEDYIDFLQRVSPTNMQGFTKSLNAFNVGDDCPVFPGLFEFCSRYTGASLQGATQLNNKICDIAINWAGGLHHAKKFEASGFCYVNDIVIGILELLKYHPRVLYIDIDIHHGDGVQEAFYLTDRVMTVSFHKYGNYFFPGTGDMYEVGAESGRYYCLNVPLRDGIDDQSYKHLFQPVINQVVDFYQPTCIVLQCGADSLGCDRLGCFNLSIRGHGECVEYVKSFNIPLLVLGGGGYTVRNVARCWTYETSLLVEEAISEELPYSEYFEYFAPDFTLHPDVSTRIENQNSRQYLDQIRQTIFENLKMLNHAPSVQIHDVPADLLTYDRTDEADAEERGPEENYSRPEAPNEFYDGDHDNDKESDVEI
pIC50: −log10 of the molar value.
measuredEndpoint: pIC50

P: CCC(=O)CCCCC[C@@H]1NC(=O)C2CCN2CCCCCCc2ccccc2-c2cnc1[nH]2 (stereo in doubt; 7)
Q: CCC(=O)CCCCC[C@@H]1NC(=O)C2CCN2CCCCCOc2ccccc2-c2cnc1[nH]2 (stereo in doubt; 4)
Field: entry with larger pIC50 (options P / Q ). To answer, give the label that identifies your chosen option.
Q

###

Molecular target: Histone deacetylase 8 (Homo sapiens)
Sequence (Q9BY41 whole entry): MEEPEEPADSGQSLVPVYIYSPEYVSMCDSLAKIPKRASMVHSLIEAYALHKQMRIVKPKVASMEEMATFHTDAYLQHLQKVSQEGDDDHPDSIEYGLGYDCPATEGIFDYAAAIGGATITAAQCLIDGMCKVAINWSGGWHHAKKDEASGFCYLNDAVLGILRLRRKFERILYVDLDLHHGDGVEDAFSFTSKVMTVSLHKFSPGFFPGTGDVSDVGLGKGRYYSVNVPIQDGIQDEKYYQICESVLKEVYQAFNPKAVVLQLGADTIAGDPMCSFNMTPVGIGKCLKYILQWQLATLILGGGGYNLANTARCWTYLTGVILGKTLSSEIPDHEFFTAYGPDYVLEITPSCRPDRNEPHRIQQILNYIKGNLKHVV
pIC50: −log10 of the molar value.
measuredEndpoint: pIC50

# example entries with known answers
CCC(=O)CCCCC[C@@H]1NC(=O)[C@H]2CC23CCN(C/C=C/CN2C4CCC2c2cc(ccc24)-c2cnc1[nH]2)CC3 (stereo partly specified)    < 6.05
CCC(=O)CCCCC[C@@H]1NC(=O)CN(C)CCCCOCCCCn2ccc3cc(ccc3c2=O)-c2cnc1[nH]2    < 6.05
CCC(=O)CCCCC[C@H](NC(=O)[C@H]1CC12CCN(CC)CC2)c1[nH]c2nc1C(=O)NCCCCCc1cccc-2c1    < 6.05
CCC(=O)CCCCC[C@@H]1NC(=O)[C@H]2CC23CCN(CCOCCn2ccc4cc(ccc4c2=O)-c2cnc1[nH]2)CC3    < 6.05

Which pIC50 is listed for CCC(=O)CCCCC[C@@H]1NC(=O)[C@H]2CC23CCN(CCCOCCn2ccc4cc(ccc4c2=O)-c2cnc1[nH]2)CC3 ?
< 6.05

Which pIC50 is listed for CCC(=O)CCCCC[C@H](NC(=O)[C@H]1CC12CCN(CC)CC2)c1[nH]c2nc1C(=O)NCCC/C=C\c1cccc-2c1 ?
7.05

###

Assay: Half life in Wistar Han rat at 2 mg/kg, iv
Format: ADME, organism-based
Conditions: in vivo
measuredEndpoint: half-life (h)

a: CCC(=O)CCCCC[C@@H]1NC(=O)[C@H]2CC23CCN(CCCCCCCCn2ccc4cc(c(OC)cc4c2=O)-c2cnc1[nH]2)CC3
b: CCC(=O)CCCCC[C@@H]1NC(=O)[C@H]2CC23CCN(CCOCCn2ccc4cc(ccc4c2=O)-c2cnc1[nH]2)CC3
Field: entry with larger half-life (options a / b ). To answer, give the label that identifies your chosen option.
b
(b: 3.9 h, a: 1.4 h)

###

Experiment: Half life in Wistar Han rat at 0.05 mg/kg, iv
Assay type: ADME, organism-based
Conditions: in vivo
measuredEndpoint: half-life (h)
Answer format: numeric, h implied, no suffix.

Which half-life is listed for CCC(=O)CCCCC[C@@H]1NC(=O)[C@H]2CC23CCN(CCCCCCCCn2ccc4cc(ccc4c2=O)-c2cnc1[nH]2)CC3 ?
2.8

###

Biological target: Histone deacetylase 1 (Homo sapiens)
Sequence (Q13547 whole entry): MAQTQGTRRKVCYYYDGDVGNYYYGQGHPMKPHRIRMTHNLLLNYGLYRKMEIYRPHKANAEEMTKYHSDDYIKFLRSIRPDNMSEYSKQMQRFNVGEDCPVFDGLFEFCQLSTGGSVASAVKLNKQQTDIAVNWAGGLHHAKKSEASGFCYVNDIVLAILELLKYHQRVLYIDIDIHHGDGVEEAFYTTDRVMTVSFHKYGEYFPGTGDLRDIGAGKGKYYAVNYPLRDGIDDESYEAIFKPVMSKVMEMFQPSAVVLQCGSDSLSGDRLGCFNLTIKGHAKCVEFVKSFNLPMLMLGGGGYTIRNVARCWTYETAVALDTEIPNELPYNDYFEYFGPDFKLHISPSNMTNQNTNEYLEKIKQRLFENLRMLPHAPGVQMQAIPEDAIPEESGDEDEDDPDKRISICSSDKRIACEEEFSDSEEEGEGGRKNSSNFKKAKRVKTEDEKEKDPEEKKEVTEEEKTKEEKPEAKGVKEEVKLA
measuredEndpoint: pIC50
# reply with the number alone; pIC50 is -log10 of concentration in mol/L

What measured pIC50 is associated with CCC(=O)CCCCC[C@@H]1NC(=O)C2CCN2CCCCCOc2ccccc2-c2cnc1[nH]2 (stereo in doubt; 4) on Histone deacetylase 1 (Homo sapiens)?
6.67

###

Assay: Plasma concentration in Wistar Han rat at 10 mg/kg, po after 24 hrs
Assay type: ADME, organism-based
measuredEndpoint: concentration at 24 h (nM)
Answer format: numeric, nM implied, no suffix.

Which concentration at 24 h is listed for CCC(=O)CCCCC[C@@H]1NC(=O)[C@H]2CC23CCN(CCOCCn2ccc4cc(ccc4c2=O)-c2cnc1[nH]2)CC3 ?
1

###

Test system: Human immunodeficiency virus
Experiment: Reactivation of HIV latency infected in human 2C4 cells in presence of 0.1 % NHS by luciferase reporter gene assay
Type: functional, organism-based
Settings: Human immunodeficiency virus 1, 2C4
pEC50: −log10 of the molar value.
measuredEndpoint: pEC50

CCC(=O)CCCCC[C@@H]1NC(=O)[C@H]2CC23CCN(CCCCCCCCn2ccc4cc(ccc4c2=O)-c2cnc1[nH]2)CC3    7.85

1: CCC(=O)CCCCC[C@@H]1NC(=O)[C@H]2CC23CCN(CCCCN2C4CCC2c2cc(ccc24)-c2cnc1[nH]2)CC3 (some centres undefined)
2: CCC(=O)CCCCC[C@H](NC(=O)[C@H]1CC12CCN(CC)CC2)c1ncc(-c2ccc3c(=O)n(CC)ccc3c2)[nH]1
3: CCC(=O)CCCCC[C@@H]1NC(=O)[C@H]2CC23CCN(CCCCN2C4CCC2c2c(cccc24)-c2cnc1[nH]2)CC3 (some centres undefined)
Descending sort on pEC50 required. Your reply should list the labels following the order given in the request.
2, 1, 3
(2: 7.28, 1: 6.07, 3: 5.20)

A: CCC(=O)CCCCC[C@@H]1NC(=O)C2CCN2CCCCCCOc2ccccc2-c2cnc1[nH]2 (stereo in doubt; 6)
B: CCC(=O)CCCCC[C@@H]1NC(=O)[C@H]2CC23CCN(C/C=C/CN2C4CCC2c2cc(ccc24)-c2cnc1[nH]2)CC3 (some centres undefined)
Pick one, A or B : lowest reported pEC50. To answer, give the label that identifies your chosen option.
A
